Reported half-life at 2 µM values for the following compounds.
# assay-overview: GI S9 stability - no PMSF
# Assay type: in vitro ADME
# test-context: pH 7.4; human intestinal S9, PMSF-free; read-out: GIS9-HUMAN-NoPMSF T1/2
// return numeric value only (unit: s, not printed)

A selection of reference data follows.
>>> print(df.to_string())
                         structure_notation  measurement_label  assay_result
0  N#C[C@@]1(c2ccc3c(N)ncnn23)O[C@H](COC(=O)OCC23CCC(CC2)C3)[C@@H](O)[C@H]1O  half-life at 2 µM          39.3
1  CC(C)(OC(=O)OC[C@H]1O[C@@](C#N)(c2ccc3c(N)ncnn23)[C@H](O)[C@@H]1O)c1cccnc1  half-life at 2 µM          5800
2  CC(=O)O[C@H]1[C@@H](OC(C)=O)[C@](C#N)(c2ccc3c(N)ncnn23)O[C@@H]1COC(=O)OC(C)(C)c1ccncc1  half-life at 2 µM          40.9
3  N#CCC1(COC(=O)OC[C@H]2O[C@@](C#N)(c3ccc4c(N)ncnn34)[C@H](O)[C@@H]2O)CC1  half-life at 2 µM           179
4  CC1(COC(=O)OC[C@H]2O[C@@](C#N)(c3ccc4c(N)ncnn34)[C@H](O)[C@@H]2O)CC1  half-life at 2 µM          72.7
5  CC(C)OC(=O)OC[C@H]1O[C@@](C#N)(c2ccc3c(N)ncnn23)[C@@H]2OC(=O)O[C@@H]21  half-life at 2 µM          29.5

Pending compound:
Req: Requested read-out: half-life at 2 µM. Entry: COC(=O)OC[C@H]1O[C@@](C#N)(c2ccc3c(N)ncnn23)[C@H](OC(C)=O)[C@@H]1OC(C)=O
Resp: 35.4

----------
# assay-overview: Stability in pH7 buffered solution
# Type: physicochemical
# test-context: pH7 phosphate buffer, 40° C., Table N2
# Method: Example N: Stability in p112 and p117 Buffered Solutions The aqueous stability of compounds over a time of 24 hours at 40° C. was assessed. Stability was determined in 50 mM phosphate buffered solutions at both pH2 and pH7, with 150 mM NaCl (to achieve isotonicity). 3-5 mg of solid compounds were added to 7 mL scintillation vials. […] Concentration timepoints were measured at 0, 3, 6, 9, and 12 hrs. After 24 hrs, samples in the 40° C. oven were removed and analyzed by UPLC. […]
measurement-label: pH 7 Stability 24 h % AN (% AN)
// return numeric value only (unit: % AN, not printed)

>>> print(df.to_string())
                                   compound  assay_result
0  CC(C)OC(=O)Nc1ncnn2c([C@]3(C#N)O[C@H](COC(=O)OC(C)C)[C@@H](OC(=O)OC(C)C)[C@H]3O)ccc12 [Compound 62]            10
1  CCC(CC)COC(=O)OC[C@H]1O[C@@](C#N)(c2ccc3c(N)ncnn23)[C@H](O)[C@@H]1O [Compound 15]            97
2  CCOC(=O)OC[C@H]1O[C@@](C#N)(c2ccc3c(N)ncnn23)[C@H](OC(=O)OCC)[C@@H]1OC(=O)OCC [Compound 106]            91
3  CC1(OC(=O)OC[C@H]2O[C@@](C#N)(c3ccc4c(N)ncnn34)[C@H](O)[C@@H]2O)CCCCC1 [Compound 47]             3
4  COC(=O)OC[C@H]1O[C@@](C#N)(c2ccc3c(N)ncnn23)[C@H](OC(=O)OC)[C@@H]1OC(=O)OC [Compound 93]            75
5  COC(=O)OC[C@H]1O[C@@](C#N)(c2ccc3c(N)ncnn23)[C@H](OC(C)=O)[C@@H]1OC(C)=O [Compound 128]            78

Pending compound:
Req: Requested read-out: pH 7 Stability 24 h % AN. Entry: CC(=O)O[C@H]1[C@@H](OC(C)=O)[C@](C#N)(c2ccc3c(N)ncnn23)O[C@@H]1COC(=O)OC(C)C [Compound 65]
Resp: 80

----------
Reported logD values for the following molecules.
# assay-overview: physchem

A selection of reference data follows.
>>> df
                         structure_notation  measurement_label  assay_result
0  CC(C)(C)OC(=O)C(C)(C)OC(=O)OC[C@H]1O[C@@](C#N)(c2ccc3c(N)ncnn23)[C@H](O)[C@@H]1O               logD             2
1  CC1(COC(=O)OC[C@H]2O[C@@](C#N)(c3ccc4c(N)ncnn34)[C@H](O)[C@@H]2O)CC1               logD           1.5
2  CCCCCCCCCCOC(=O)OC[C@H]1O[C@@](C#N)(c2ccc3c(N)ncnn23)[C@H](O)[C@@H]1O               logD           3.7
3  CC1(C)CC(COC(=O)OC[C@H]2O[C@@](C#N)(c3ccc4c(N)ncnn34)[C@H](O)[C@@H]2O)C1               logD           2.3
4  N#CC1(COC(=O)OC[C@H]2O[C@@](C#N)(c3ccc4c(N)ncnn34)[C@H](O)[C@@H]2O)CC1               logD           0.7

Req: Requested read-out: logD. Entry: COc1ccc(CCOC(=O)OC[C@H]2O[C@@](C#N)(c3ccc4c(N)ncnn34)[C@H](O)[C@@H]2O)cc1
Resp: 1.8

Req: Requested read-out: logD. Entry: CC(C)OC(=O)Nc1ncnn2c([C@]3(C#N)O[C@H](COC(=O)OC(C)C)[C@@H](O)[C@H]3O)ccc12
Resp: 2

Req: Requested read-out: logD. Entry: CN(C)[C@@H](COC(=O)OC[C@H]1O[C@@](C#N)(c2ccc3c(N)ncnn23)[C@H](O)[C@@H]1O)C(=O)OC1CCCC1
Resp: 1.7

Req: Requested read-out: logD. Entry: CN(C)[C@@H](COC(=O)OC[C@H]1O[C@@](C#N)(c2ccc3c(N)ncnn23)[C@H](O)[C@@H]1O)C(=O)OCC1CCCC1
Resp: 2.2

Req: Requested read-out: logD. Entry: N#CCC1(COC(=O)OC[C@H]2O[C@@](C#N)(c3ccc4c(N)ncnn34)[C@H](O)[C@@H]2O)CC1
Resp: 0.9

Req: Requested read-out: logD. Entry: N#C[C@@]1(c2ccc3c(N)ncnn23)O[C@H](COC(=O)OC23CC(C(F)(F)F)(C2)C3)[C@@H](O)[C@H]1O
Resp: 2.2

----------
Reported half-life at 2 µM values for the following compounds.
# assay-overview: GI S9 stability - no PMSF
# Assay type: in vitro ADME
# test-context: pH 7.4; human intestinal S9, PMSF-free; read-out: GIS9-HUMAN-NoPMSF T1/2
// return numeric value only (unit: min, not printed)

A selection of reference data follows.
In [3]: df
Out[3]:
                         structure_notation  units_symbol  assay_result
0  CC(C)(OC(=O)OC[C@H]1O[C@@](C#N)(c2ccc3c(N)ncnn23)[C@H](O)[C@@H]1O)C(F)F           min          38.9
1  C=CCCOC(=O)O[C@H]1[C@@H](OC(=O)OCCC=C)[C@](C#N)(c2ccc3c(N)ncnn23)O[C@@H]1COC(=O)OC(C)C           min          1.01

Pending compound:
Req: Requested read-out: half-life at 2 µM. Entry: C[C@H](OC(=O)OC[C@H]1O[C@@](C#N)(c2ccc3c(N)ncnn23)[C@H](O)[C@@H]1O)c1ccccc1
Resp: 4.91

----------
# assay-overview: Stability in pH7 buffered solution
# Format: physicochemical
# test-context: pH7 phosphate buffer, 40° C., Table N2
Returns criterion met if the recorded pH 7 Stability 24 h % AN is greater than or equal to 80 % AN, and criterion not met otherwise.

Consider the following illustrative entries.
                                   compound              group
0  CC(C)C(=O)O[C@H]1[C@@H](OC(=O)C(C)C)[C@](C#N)(c2ccc3c(N)ncnn23)O[C@@H]1COC(=O)OC(C)(C)C [Compound 58]  criterion not met
1  CC(=O)O[C@H]1[C@@H](OC(C)=O)[C@](C#N)(c2ccc3c(N)ncnn23)O[C@@H]1COC(=O)OC(C)(C)c1ccncc1 [Compound 79]  criterion not met
2  CC(C)(OC(=O)OC[C@H]1O[C@@](C#N)(c2ccc3c(N)ncnn23)[C@H](O)[C@@H]1O)C(F)F [Compound 76]      criterion met
3  CCOC(=O)OC[C@H]1O[C@@](C#N)(c2ccc3c(N)ncnn23)[C@H](O)[C@@H]1O [Compound 6]      criterion met

For the next question, use this compound.
Req: API: above_or_equal(metric=pH 7 Stability 24 h % AN, cutoff=80 % AN) for item CC(C)OC(=O)[C@H]([C@@H](C)OC(=O)OC[C@H]1O[C@@](C#N)(c2ccc3c(N)ncnn23)[C@H](O)[C@@H]1O)N(C)C [Compound 145]
Resp: criterion not met
